Tested on: MDR1 (P-gp)
Assay: in vitro
Settings: dog, MDCK-MDR1, pH 7.4

molecule | Papp A→B at 120 min, 5 μM
CN(c1ccc(-c2cc3ncn(CC(F)(F)F)c(=O)c3cc2O)nn1)[C@@H]1C[C@H]2CC(F)(F)[C@@H](C1)N2C (single isomer, unassigned) [Compound 110A] | 11 ×10⁻⁶ cm/s
CN(c1ccc(-c2cc(C#N)ccc2O)nn1)[C@H]1C[C@@H]2CC[C@@H](N2)[C@H]1F (single isomer, unassigned) [Compound 70B] | 3.84 ×10⁻⁶ cm/s
CN(c1ccc(-c2cc(C#N)ccc2O)nn1)[C@@H]1C[C@H]2CC[C@H](N2)[C@@H]1F (single isomer, unassigned) [Compound 70A] | 3.17 ×10⁻⁶ cm/s
Cc1nc2cc(-c3ccc(N(C)[C@@H]4C[C@H]5CC[C@@H]([C@@H]4F)N5C)nn3)c(O)cc2c(=O)n1C [Compound 105A] | 0.58 ×10⁻⁶ cm/s
CCc1cn(-c2ccc(-c3ccc(N(C)[C@H]4C[C@@H]5CC(F)(F)[C@H](C4)N5)nn3)c(O)c2)cn1 [Compound 18B] | 8.37 ×10⁻⁶ cm/s
CN(c1ccc(-c2cc3ccn(C)c(=O)c3s2)nn1)[C@H]1C[C@@H]2CC[C@@H](N2)[C@H]1F (single isomer, unassigned) [Compound 67B] | 0.47 ×10⁻⁶ cm/s
CN(c1ccc(-c2cc3cnccc3cc2O)nn1)[C@H]1C[C@@H]2CC(F)(F)[C@H](C1)N2 [Compound 126B] | 12.6 ×10⁻⁶ cm/s
CNC(=O)c1cc(O)c(-c2ccc(N(C)[C@@H]3C[C@H]4CC[C@@H]([C@@H]3F)N4C)nn2)cc1F (single isomer, unassigned) [Compound 96A] | 2.97 ×10⁻⁶ cm/s
CN(c1ccc(-c2cc3cccnc3cc2O)nn1)[C@H]1C[C@@H]2CC(F)(F)[C@H](C1)N2 [Compound 45B] | 10.2 ×10⁻⁶ cm/s
CN(C)C(=O)c1cc(O)c(-c2ccc(N(C)[C@@H]3C[C@H]4CC[C@@H]([C@@H]3F)N4C)nn2)cc1F (single isomer, unassigned) [Compound 104A] | 1.23 ×10⁻⁶ cm/s
CN(c1ccc(-c2cn3c(=O)ccnc3cc2O)nn1)[C@@H]1C[C@H]2CC[C@H](N2)[C@@H]1F (single isomer, unassigned) [Compound 82A] | 0.08 ×10⁻⁶ cm/s
CN(c1ccc(-c2cc3ccn(C)c(=O)c3cc2O)nn1)[C@@H]1C[C@H]2CC[C@@H]([C@@H]1F)N2C (single isomer, unassigned) [Compound 97A] | 1.96 ×10⁻⁶ cm/s
